- study.system: T1, human CD25 (NP_000408.1) (Met 1-Cys 213) C-terminally fused with 6-histidine tag (human, UniProt P01589 22-213)
- T1 construct: range 1-213; Expressed in CHO-K1 cells; also called human CD25-his
- T1 sequence: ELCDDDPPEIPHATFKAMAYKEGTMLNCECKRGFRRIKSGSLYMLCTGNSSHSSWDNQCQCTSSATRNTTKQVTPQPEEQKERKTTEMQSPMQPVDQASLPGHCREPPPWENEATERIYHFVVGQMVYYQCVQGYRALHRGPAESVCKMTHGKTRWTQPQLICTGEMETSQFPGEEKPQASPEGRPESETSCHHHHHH
- assay: SPR (BIAcore X100), human CD25-his captured by anti-histidine antibody, antibody as analyte, 1:1 model
value.type: log10 of Kd (log10 of the value in nM)
Parameter value (number): base-10 log of Kd in nM.

Supply log10 of Kd value. Item: chimeric antibody 2046-18H1L1 (antibody, human IgG1, kappa, V domains shown, Chimeric, human IgG1/kappa; also called 2046-18ix) VH: DVQLQESGPGLVKPSQSLSLTCTVTGYSITSDYAWNWIRQFPGNKLEWMGYISYSGITIYNPSLKSRISITRDTSKNQFFLQLNSVTTEDTATYYCARWLLQIYYAMDYWGQGTSVTVSS VL: DVVMTQTPLSLPVSLGDQASISCSSSQSLVHSNGNTYLHWYLHKPGQSPKLLIYKVSNRFSGVPDRFSGSGSGTDFTLKISRVEAEDLGVYFCSQSTHVPLTFGAGTKLELKR
-0.15

Supply log10 of Kd value. Item: chimeric antibody 2046-111H2L1 (antibody, human IgG1, kappa, V domains shown, Chimeric, human IgG1/kappa) VH: DVQLQESGPGLVKPSQSLSLTCTVTGHSITSDYAWNWIRQFPGNKLEWMGYISYSGSTIYNPSLKSRISITRDTSKNQFFLQLNSVTTEDTATYYCARWLLQNYYAMDYWGQGTSVTVSS VL: DVVMTQTPLSLPVSLGDQASISCRSSQSLVHSNGNTYLHWYLRKPGQSPKLLIYKVSNRFSGVPDRFSGSGSGTDFTLKISRVEAEDLGVYFCSQSTHVPLTFGAGTKLELKR
-0.09

Supply log10 of Kd value. Item: chimeric antibody 2047-3H8L2 (antibody, human IgG1, kappa, V domains shown, Chimeric, human IgG1/kappa; also called 2047-3ix) VH: QVQLKQSGAELVKPGASVKMSCKTSGYTFTDYVISWVKQRTGQGLEWIGEIYPGSGSTYYNEKFKGKATLTADISSNTAYMQLSSLTSEDSAVYFCASINFDYWGHGTTLTVSS VL: DIVMTQSPATLSVTPGDRVSLSCRASQSISDYLHWYQQKSHESPRLLIKYASQSISGIPSRFSGSGSGSDFTLSINSVEPEDVGVYYCQNGHSFPYTFGGGTKLEIKR
-0.51

Supply log10 of Kd value. Item: chimeric antibody 2046-2H1L1 (antibody, human IgG1, kappa, V domains shown, Chimeric (murine V, human IgG1/kappa); also called 2046-2ix) VH: DVQLQESGPGLVKPSQSLSLTCTVTGYSITSDYAWNWIRHFPGNKLEWMGYITYSGSTVYNPSLKSRISITRDTSKNHFFLQLNSVTTEDTATYYCARWLLQIYYAMDYWGQGTSVTVSS VL: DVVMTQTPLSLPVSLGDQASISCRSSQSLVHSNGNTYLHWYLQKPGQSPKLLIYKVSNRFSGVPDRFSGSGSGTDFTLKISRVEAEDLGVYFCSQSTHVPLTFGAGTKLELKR
0.63

Supply log10 of Kd value. Item: chimeric antibody 2047-10H1L2 (antibody, human IgG1, kappa, V domains shown, Chimeric, human IgG1/kappa; also called 2047-10ix) VH: QVQLQQSGPELVRPGVSVKISCKGSGYTFTDYAMHWVKQSHAKSLEWIGVISTYNGNTNYNQKFKGKATMTVDKSSSTAYMELARLTSEDSAIYYCARSYGNYPFDYWGQGTTLTVSS VL: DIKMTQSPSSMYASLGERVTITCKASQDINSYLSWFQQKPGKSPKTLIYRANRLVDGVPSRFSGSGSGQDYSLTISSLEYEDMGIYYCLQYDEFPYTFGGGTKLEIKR
1.19

Supply log10 of Kd value. Item: chimeric antibody 2046-24H2L1 (antibody, human IgG1, kappa, V domains shown, Chimeric, human IgG1/kappa; also called 2046-24ix) VH: DVQLQESGPGLVKPSQSLSLTCTVTGYSITSDYAWNWIRQFPGNKLEWMGYISYGGTTIYNPSLKSRISITRDTSKNQFFLQLNSVTTEDTATYYCARWLLQNYYAMDYWGQGTSVTVSS VL: DVVMTQTPLSLPVSLGDQASISCRSSQSLVHSNGNTYLHWYLQKPGQSPKVLIYKVSNRFSGVPDRFSGSGSGTDFTLKISRVEAEDLGVYFCSQNTHVPLTFGAGTKLELKR
0.88
